molecular target: T1, Soluble heterodimeric CD3 protein (hCD3-epsilon/hCD3-delta) with either a human Fc tag (hFcΔAdp/hFc) or a … (human, UniProt P07766 23-126; P04234 22-105); experiment: SPR Biacore 25C antibody-capture
T1 construct: also called hCD3ε/δ; not shown: Fc tag: human (hFcΔAdp/hFc)
T1 sequence (P07766 23-126 limits assumed, stated change not applied, chain 1 of 2): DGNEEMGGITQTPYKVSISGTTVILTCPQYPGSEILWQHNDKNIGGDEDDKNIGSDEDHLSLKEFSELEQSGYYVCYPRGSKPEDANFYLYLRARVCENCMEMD
T1 sequence (P04234 22-105 limits assumed, stated change not applied, chain 2 of 2): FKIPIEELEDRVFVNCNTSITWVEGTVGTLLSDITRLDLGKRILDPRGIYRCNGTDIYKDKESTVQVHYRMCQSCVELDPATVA
Examples of binders with documented kon follow.
Answer format: numeric, M⁻¹ s⁻¹ implied, no suffix.

| BINDER | OBSERVATION_TYPE | UNITS_LABEL | MEASUREMENT |
| --- | --- | --- | --- |
| H1H5795B (antibody, human IgG1, V domains shown, H1H: human IgG1 Fc; divalent) VH: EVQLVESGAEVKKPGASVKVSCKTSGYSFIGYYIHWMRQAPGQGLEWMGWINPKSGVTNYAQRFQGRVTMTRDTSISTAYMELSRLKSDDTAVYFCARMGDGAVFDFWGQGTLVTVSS VL: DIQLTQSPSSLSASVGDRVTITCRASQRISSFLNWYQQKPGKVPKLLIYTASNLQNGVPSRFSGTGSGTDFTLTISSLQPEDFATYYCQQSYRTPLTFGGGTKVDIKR | kon | M⁻¹ s⁻¹ | 17300 |

query: Fill in reported kon for this entry: H1H2712N (antibody, human IgG1, V domains shown, H1H: human IgG1 Fc; divalent) VH: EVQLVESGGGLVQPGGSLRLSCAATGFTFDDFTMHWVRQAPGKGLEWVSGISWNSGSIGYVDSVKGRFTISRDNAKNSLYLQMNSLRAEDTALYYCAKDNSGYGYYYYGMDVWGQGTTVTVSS VL: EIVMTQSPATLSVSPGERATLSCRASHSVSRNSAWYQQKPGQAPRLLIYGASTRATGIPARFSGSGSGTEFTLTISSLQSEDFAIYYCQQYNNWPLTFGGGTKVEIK
result: 3060
